- Tested on: Brain Homogenate
- METHOD_DESCRIPTION: Peroxylipid formation inhibiting effect in brain homogenate (thiobarbituric acid (TBA) method)
- Assay type: biochemical, Wistar rats (male, 12-week old)
- CONDITION_DESCRIPTION: glutamic acid 5.0 mM and succinic acid 2.5 mM added prior to incubation, 37° C., 30 minutes, pH 7.4; read-out: Peroxylipid Formation Inhibiting Effect (IC50) Glutamic Acid and Succinic Acid Added
- Protocol: JC1:Wistar rats (male, 12-week old) were used as test animals. The rats were sacrificed by decapitation, and the brain was quickly removed and homogenized with 10 ml of 10 mM Tris-HCl buffer (pH 7.4) containing 150 mM KCl. […] To determine the amount of the peroxylipid formed, used was a thiobarblturic acid (TBA) method. […] Then, the reaction mixture was cooled to room temperature, and its absorbance at 532 nm was measured. […]
compounds and their reported IC50
Number only, in nM; omit the unit.

- COMPOUND: "CCOC(=O)CCCCCCCC1CC2=C(C1)C(=O)C(OC)=C(OC)C2=O [Ex. 9]"
  MEASURED_ENDPOINT: "IC50"
  UNIT_ANNOTATION: "nM"
  VALUE: 940

QUERY: # lookup: IC50 of COC1=C(OC)C(=O)C2=C(CC(CCCCCCCCO)C2)C1=O [Ex. 10]
RESULT: 170

Attribution: patent US6326369A
